Here the recorded pIC50 is given for each entry.
Test system: HCT-116
assayProcedure: Cytotoxicity against human HCT-116 cells assessed as inhibition of cell growth incubated for 72 hrs by CCK-8 assay
Assay type: functional, cell-based
testConditions: HCT-116, 72 h
pIC50: −log10 of the molar value.

CCO[C@H]1CC(=O)[C@]2(C)[C@H]3CC[C@]4(C)[C@@H]([C@H](C)[C@H]5CC(C)=C(C)C(=O)O5)C[C@H](O)[C@]4(O)[C@@H]3C[C@H]3O[C@]32[C@H]1O	< 5.00
CC(=O)O[C@H]1C[C@H]([C@H](C)[C@H]2CC(C)=C(C)C(=O)O2)[C@@]2(C)CCC3[C@@H](C[C@@H](O)C4=CC=CC(=O)[C@@]43C)[C@@]12O (stereo not given in full)	< 5.00
CC(=O)O[C@H]1C[C@H]([C@H](C)[C@@H]2OC(=O)C(C)=C(C)[C@@H]2O)[C@@]2(C)CC[C@H]3[C@@H](C[C@H]4O[C@]45[C@@H](O)C=CC(=O)[C@]35C)[C@@]12O	5.07
CCO[C@H]1CC(=O)[C@]2(C)[C@H]3CC[C@@]4(C)[C@@](O)([C@@H]3C[C@H]3O[C@]32[C@H]1O)[C@@H](OC(C)=O)[C@@H]1O[C@@]14[C@H](C)[C@H]1CC(C)=C(C)C(=O)O1	< 5.00

# ---- query compound ----
What pIC50 appears in the records for this compound with HCT-116? CCO[C@H]1CC(=O)[C@]2(C)[C@H]3CC[C@@]4(C)[C@](O)([C@@H](OC(C)=O)C[C@@]4(O)[C@H](C)[C@H]4CC(C)=C(C)C(=O)O4)[C@@H]3C[C@H]3O[C@]32C1
< 5.00

* * *

System: HCT-116
assayProcedure: Cytotoxicity against human HCT-116 cells assessed as inhibition of cell growth incubated for 72 hrs by CCK-8 assay
Type: functional, cell-based
testConditions: HCT-116, 72 h
reportedMetric: IC50

Some molecules with known IC50 results, for comparison:
CC(=O)O[C@H]1[C@H](O)[C@](O)([C@H](C)[C@H]2CC(C)=C(C)C(=O)O2)[C@@]2(C)CC[C@H]3[C@@H](C[C@H]4O[C@]45[C@@H](O)C=CC(=O)[C@]35C)[C@@]12O	7.2 µM
CO[C@H]1C=C([C@H](C)[C@H]2CC(C)=C(C)C(=O)O2)[C@@]2(C)CC[C@H]3[C@@H](C[C@@H](O)[C@@]4(Cl)CC=CC(=O)[C@]34C)[C@@]12O	8.8 µM
CCO[C@H]1CC(=O)[C@]2(C)[C@H]3CC[C@]4(C)C([C@H](C)[C@H]5CC(C)=C(C)C(=O)O5)=C[C@H](OC(C)=O)[C@]4(O)[C@@H]3C[C@H]3O[C@]32[C@H]1O	> 10 µM
CC(=O)O[C@H]1C=C([C@H](C)[C@H]2CC(C)=C(C)C(=O)O2)[C@@]2(C)[C@H](O)C[C@H]3[C@@H](C[C@@H](O)[C@@]4(O)CC=CC(=O)[C@]34C)[C@@]12O	> 10 µM

Query the reported IC50 for HCT-116; item: CC1=C(C)C(=O)O[C@@H]([C@@H](C)C2=C[C@H](O)[C@]3(O)[C@@H]4C[C@H]5O[C@]56[C@@H](O)CCC(=O)[C@]6(C)[C@H]4CC[C@]23C)C1
> 10 µM

* * *

System: HCT-116
assayProcedure: Cytotoxicity against human HCT-116 cells assessed as inhibition of cell growth incubated for 72 hrs by CCK-8 assay
Type: functional, cell-based
testConditions: HCT-116, 72 h
IC50: recorded values

Data request, read-out IC50, for CC(=O)O[C@H]1[C@@H]2O[C@]2([C@@H](C)[C@H]2CC(C)=C(C)C(=O)O2)[C@@]2(C)CC[C@H]3[C@@H](C[C@H](Cl)[C@]4(O)CC=CC(=O)[C@]34C)[C@@]12O
> 10 µM

Now try CC(=O)O[C@H]1C[C@](O)([C@H](C)[C@H]2CC(C)=C(C)C(=O)O2)[C@@]2(C)CC[C@H]3[C@@H](C[C@H]4O[C@]45[C@@H](O)C=CC(=O)[C@]35C)[C@@]12O .
1.8 µM

Same question for CCO[C@H]1CC(=O)[C@]2(C)[C@H]3CC[C@]4(C)C([C@H](C)[C@H]5CC(C)=C(C)C(=O)O5)=C[C@H](OC(C)=O)[C@]4(O)[C@@H]3C[C@H]3O[C@]32C1 please.
> 10 µM

Also CC(=O)O[C@H]1C=C([C@H](C)[C@H]2CC(C)=C(C)C(=O)O2)[C@@]2(C)CC[C@H]3[C@@H](C[C@H]4O[C@]45C[C@@H](O)CC(=O)[C@]35C)[C@@]12O ?
> 10 µM

And CC(=O)O[C@H]1C=C([C@H](C)[C@H]2CC(C)=C(C)C(=O)O2)[C@@]2(C)CC[C@H]3[C@@H](CC(=O)C4CC=CC(=O)[C@@]43C)[C@@]12O (stereo not given in full) ?
9.2 µM
